Target: Huntingtin (Homo sapiens)
Assay: mutant huntingtin-calmodulin interaction inhibitors – biochemical, AlphaScreen, primary screen (AID 1671202);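 note: 0% = both proteins with DMSO and 100% = one protein alone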
Settings: AlphaScreen His-mHTT/GST-CaM binding, luminescence; at 15 µM
The whole screen tested about 190,000 compounds, of which about 6,900 (3.6%) were called active. Cut-off read from the data, not from the text of the source: active = inhibition above about 50%; inactive = the rest. What follows is part of a selection rich in actives, with near analogues and random picks from the rest.
Outcomes: label 1 (active), label 0 (inactive)

INSERT INTO results (compound, tested_target, label_value) VALUES
  ('Cc1cccc(-n2nc3c(c2NC(=O)c2cccc(Cl)c2)CS(=O)(=O)C3)c1C', 'Huntingtin (Homo sapiens)', 'label 0'),
  ('O=C(CSc1nc2ccsc2c(=O)n1Cc1ccccc1F)NC1CCCC1', 'Huntingtin (Homo sapiens)', 'label 0'),
  ('Cc1ccccc1NC(=O)CSc1nnc(-c2ccco2)n1C', 'Huntingtin (Homo sapiens)', 'label 0'),
  ('CCNC(=O)N(C)CC(=O)N1N=C(c2ccccc2F)CC1c1ccc(C)cc1 (stereo not given)', 'Huntingtin (Homo sapiens)', 'label 0'),
  ('COc1ccc(C2CC(c3cccc(F)c3)=NN2C(=O)CN2CCCCC2)cc1 (stereo not given)', 'Huntingtin (Homo sapiens)', 'label 0'),
  ('COc1ccccc1C1=NN(C(=O)CN2CCC(C)CC2)C(c2ccc(C)cc2)C1 (stereo not given)', 'Huntingtin (Homo sapiens)', 'label 0'),
  ('Cc1ccc(C2CC(c3cccc(F)c3)=NN2C(=O)CN2CCOCC2)cc1 (stereo not given)', 'Huntingtin (Homo sapiens)', 'label 1'),
  ('COc1ccccc1C1=NN(C(=O)CN2CCCCC2)C(c2ccc(C)cc2)C1 (stereo not given)', 'Huntingtin (Homo sapiens)', 'label 0'),
  ('COc1ccc(C2=NN(C(=O)CCC(=O)O)C(c3ccc(F)cc3)C2)cc1OC (stereo not given)', 'Huntingtin (Homo sapiens)', 'label 0'),
  ('Cc1ccc(C)c(C2CC(c3ccccc3Cl)=NN2C(=O)CN2CCOCC2)c1 (stereo not given)', 'Huntingtin (Homo sapiens)', 'label 1');

----------
Molecular target: Huntingtin (Homo sapiens)
Experiment: mutant huntingtin-calmodulin interaction inhibitors – biochemical, AlphaScreen, primary screen (AID 1671202);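 note: 0% = both proteins with DMSO and 100% = one protein alone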
Settings: AlphaScreen His-mHTT/GST-CaM binding, luminescence; at 15 µM, hits give high values
Screen size: about 190,000 compounds; about 6,900 (3.6%) were called active. Only a selection was taken, and actives are over-represented in it overall.
The label depends only on inhibition: Met if it is at least 10%, Not met if it is smaller.

INSERT INTO results (compound, label_value) VALUES
  ('Cc1cc(C)cc(NC(=O)NC2CCN(c3ccccc3)C2=O)c1 (stereo not drawn)', 'Not met'),
  ('O=C(Cc1c(C(=O)O)[nH]c2ccc(Cl)cc12)Nc1cccc(Cl)c1', 'Met'),
  ('Cc1ccc(C(=O)N2CCC(CCNS(=O)(=O)c3ccc(C(C)C)cc3)CC2)cc1', 'Met'),
  ('Clc1ccccc1C1CC(c2ccccc2)n2ncnc2N1 (stereo not drawn)', 'Not met'),
  ('Cc1ccc(C(=O)N2CCC(CCNS(=O)(=O)c3ccccc3F)CC2)cc1', 'Met'),
  ('CCC(=O)N1CCN(c2nc3c(s2)CC(C(=O)Nc2cc(C)ccc2C)CC3)CC1 (stereo not drawn)', 'Met'),
  ('O=C(c1ccccc1)N1CCC(CCNS(=O)(=O)c2cccc3nsnc23)CC1', 'Met'),
  ('O=C(c1ccncc1)N1N=C(c2ccc(Cl)cc2)CC1(O)C(F)(F)F (stereo not drawn)', 'Met'),
  ('CCCn1cnnc1C1CCCCN1C(=O)c1ccncc1 (stereo not drawn)', 'Not met'),
  ('CCNc1nccc(N2CCC(CC(=O)NCc3cccc(Cl)c3)CC2)n1', 'Not met'),
  ('O=c1c(-c2ccc3c(c2)OCCO3)c(C(F)(F)F)oc2cc(O)cc(O)c12', 'Met'),
  ('Cc1cc(O)c2c(=O)c(-c3csc(C)n3)c(C(F)(F)F)oc2c1', 'Not met'),
  ('OC(COCC12CC3CC(CC(C3)C1)C2)CN1CCc2ccccc2C1 (stereo not drawn)', 'Met'),
  ('CCC(NC(=O)c1ncn[nH]1)c1ccccc1 (stereo not drawn)', 'Met'),
  ('CC1(C)CC(=O)C2=C(C1)c1c(ccc3ncccc13)NC2c1ccc(O)cc1 (stereo not drawn)', 'Not met'),
  ('COc1cc(OC)c(OC)cc1/C=C1N=C(/C=C/c2ccccc2)OC/1=O', 'Not met'),
  ('Cc1oc(C2CCN(S(=O)(=O)c3ccc(F)cc3)CC2)nc1C(=O)N1CCOCC1', 'Not met'),
  ('N=C1S/C(=C\c2cccs2)C(=O)N1c1ccc2c(c1)OCO2', 'Not met'),
  ('O=C(Nc1ccccc1O)c1ncn[nH]1', 'Not met'),
  ('CCC(NC(C)=O)c1cccc(Br)c1 (stereo not drawn)', 'Not met'),
  ('COc1ccc(S(=O)(=O)NCCC2CCN(C(=O)c3ccccc3)CC2)cc1OC', 'Met'),
  ('COc1ccc(Br)cc1S(=O)(=O)NCCCn1ccnc1', 'Not met'),
  ('N#Cc1cccc(S(=O)(=O)NCCC2CCN(C(=O)c3ccccc3)CC2)c1', 'Met');
